- experiment notes: PET hydrolysis product formed (TPA+MHET+BHET, UV-Vis) per mg enzyme (mmol/mg enzyme); higher = more PET depolymerisation activity; extreme values may be limits of the assay
- details: PET substrate: aFilm; 70 °C; pH 7.5; 2 h
// label = yes if PET hydrolysis product formed is not less than 0.02, otherwise no

- record sequence: "SNPYQRGPNPTRSALTADGPFSVRTYTISRLSVSGFGGGVIYYPTGTSLTFGGIAMSPGYTADASSLAWLGRRLASHGFVVLVINTNSRFDGPDSRASQLSAALNYLRTSSPSAVRARLDANRLAVAGHSMGGGGTLRIAEQNPSLKAAVPLTPWHTDKTFNTSVPVLIVGAEADTVAPVSQHAIPFYQNLPSTTPKVYVELCNASHIAPNSPNAAISVYTISWMKLWVDNDTRYRQFLCNVNDPALCDFRTNNRHCQ [LCC-ICCG RIP]"
  category label: "yes"
- record sequence: "ANPYERGPNPTDALLEARSGPFSVSEENVSRLSASGFGGGTIYYPRENNTYGAVAISPGYTGTEASIAWLGERIASHGFVVITIDTITTLDQPDSRAEQLNAALNHMINRASSTVRSRIDSSRLAVMGHSMGGGGSLRLASQRPDLKAAIPLTPWHLNKNWSSVTVPTLIIGADLDTIAPVATHAKPFYNSLPSSISKAYLELDGATHFAPNIPNKIIGKYSVAWLKRFVDNDTRYTQFLCPGPRDGLFGEVEEYRSTCPF [TfCut2]"
  category label: "no"
- record sequence: "QTNPYARGPNPTAASLEASAGPFTVRSFTVARPVGYGAGTVYYPTNAGGTVGAIAIVPGYTATQSSINWWGPRLASHGFVVITIDTNSTLDKPESRSSQQMAALRQVASLNGTSSSPIYGKVDTARGGVMGWSMGGGGSLISAANNPSLKAAAVMAPWHSSTNFSSVTVPTLIFACENDRIAPVKEYALPIYDSMSLNAKQFLEICGGSHSCACSGNSNQALIGMKGVAWMKRFMDNDTRYSQFACENPNSTAVCDFRTANCS [HotPETase]"
  category label: "no"
- record sequence: "SNPYQRGPNPTRSALTATGPFSVATYTVSRLLVSGFGGGVIYYPTGTSLTFGGIAMSPGYTADASSLAWLGRRLASHGFVVLVINTNSRFDGPDSRARQLSAALNYLRTSSPSAVRARLDANRLAVAGHSMGGGGTLRIAEQNPSLKAAVPLTPWHPDKTFNTSVPVLIVGAQADTVAPVSQHAIPFYQNLPSTTPKVYVELCNASHIAPNSPNAAISVYTISWMKLWVDNDTRYRQFLCNVNDPALCDFRTNNRHCQ [LCC-ICCG I6M]"
  category label: "yes"
- record sequence: "QTNPYARGPNPTAASLEASAGPFTVRSFTVSRPSGYGAGTVYYPTNAGGTVGAIAIVPGYTARQSSIKWWGPRLASHGFVVITIDTNSTFDYPSSRSSQQMAALRQVASLNGDSSSPIYGKVDTARMGVMGHSMGGGASLRSAANNPSLKAAIPQAPWDSQTNFSSVTVPTLIFACENDSIAPVNSHALPIYDSMSRNAKQFLEINGGSHSCANSGNSNQALIGKKGVAWMKRFMDNDTRYSTFACENPNSTAVSDFRTANCS [DuraPETase]"
  category label: "no"
- record sequence: "ADNPYQRGPDPTNASIEAATGPFAVGTQPIVGASGFGGGQIYYPTDTSQTYGAVVIVPGFISVWAQLAWLGPRLASQGFVVIGIETSTITDLPDPRGDQALAALDWATTRSPVRSRIDRTRLAAAGWSMGGGGLRRAACQRPSLKAIVGMAPWNTEKNWSCVTVPTLFFGGSSDAVASPNDHAKPFYNSITRAEKDYIELCNADHFFPTSANTTMAKYFISWLKRWVDNDTRYTQFLCPGPSTGLFAPVCASMNTCPF [CaPETaseM9]"
  category label: "no"

Where these numbers come from: the supplement of paper PMC11196671
